// provenance: patent US6610890B1

- System: cells from rabbit cornea (ATCC CCL 60)
- assayOverview: Inhibition of intracellular accumulation of sorbitol in rabbit cornea cells
- Assay type: cell-based
- experimentalConditions: Oryctolagus cuniculus; rabbit cornea cells, 50 mM glucose, 16 h at 37° C.; read-out: INHIBITION, IC50 Sorbitol Accumulation
reportedProperty: IC50 (nM)
Supply the numeric figure in nM, leaving out any unit text.

Solved cases below.
Oc1c(Oc2cc(Br)c(Br)c(Br)c2O)cc(Br)c(Br)c1Br [A-I] : 1000
Oc1c(Oc2cc(Cl)c(Cl)c(Cl)c2O)cc(Cl)c(Cl)c1Cl [A-III] : 240
Oc1c(Br)cc(Oc2cc(Br)c(Br)c(Br)c2O)c(O)c1Br [A-II] : 8000
Oc1c(Cl)c(Cl)c(-c2c(Cl)c(Cl)c(O)c(Cl)c2Cl)c(Cl)c1Cl [A-VI] : 220

Exercise: Give the measured IC50 of O=C(c1cc(Br)cc(Br)c1O)c1cc(Br)cc(Br)c1O [A-IV] .
Key: 5000
